Source: the supplement of paper PMC10567573

What protein stability index was measured for each of the following?
B1: TRIM29 (parent)
chain: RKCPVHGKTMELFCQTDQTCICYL

Variants of: B1
Test: protein stability index of a GFP-peptide fusion (GPS, HEK-293T) (PSI 1-6); higher = more stable;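 further: lentivirally expressed fusions sorted by FACS into six bins by GFP to DsRed ratio, PSI derived from sequencing read proportions per bin multiplied by bin number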
Conditions: c terminus: a fixed tail appended

Answer with reported protein stability index of C14R
2.5

Find the measured protein stability index of Y23T and report it.
4.17

State, in one line, measured protein stability index of Q15D
1.52

Please list protein stability index recorded for the variant K8R
2.09

Look up and report measured protein stability index for this entry: K8F
2.24

Specify reported protein stability index for the variant shown: V5I
2.79

Give the measured protein stability index for M10P
2.35

Give reported protein stability index value for L12D
2.81

Return protein stability index (reported value) for this variant: C20L
2.28

Could you please provide reported protein stability index for L12T ? Thanks!
1.58
